System: Nakaseomyces glabratus
Test: Antifungal activity against Candida glabrata 20/I after 24 hrs by broth microdilution method
Assay type: functional
Readout type: MIC

# Smiles structure, Tgt, Result
rows = [
    ("O=[N+]([O-])c1cc(-c2nnn(CSc3nnnn3Cc3ccccc3)n2)cc([N+](=O)[O-])c1", "Nakaseomyces glabratus", "> 125 µM"),
    ("O=[N+]([O-])c1cc(-c2nnn(CSc3nnnn3-c3ccc(Cl)c(Cl)c3)n2)cc([N+](=O)[O-])c1", "Nakaseomyces glabratus", "> 125 µM"),
    ("Cc1ccc(Cn2nnc(-c3cc([N+](=O)[O-])cc([N+](=O)[O-])c3)n2)cc1", "Nakaseomyces glabratus", "> 500 µM"),
    ("O=[N+]([O-])c1cc(-c2nnn(Cc3ccccc3F)n2)cc([N+](=O)[O-])c1", "Nakaseomyces glabratus", "> 500 µM"),
    ("C[C@@H]1[C@H](O)[C@@H](C)/C=C/C=C/C=C/C=C/C=C/C=C/C=C/[C@H](O[C@@H]2O[C@H](C)[C@@H](O)[C@H](N)[C@@H]2O)C[C@@H]2O[C@](O)(C[C@@H](O)C[C@@H](O)[C@H](O)CC[C@@H](O)C[C@@H](O)CC(=O)O[C@H]1C)C[C@H](O)[C@H]2C(=O)O", "Nakaseomyces glabratus", "0.54 µM"),
    ("O=[N+]([O-])c1cc(-c2nnn(Cc3cccc(Br)c3)n2)cc([N+](=O)[O-])c1", "Nakaseomyces glabratus", "> 500 µM"),
    ("O=[N+]([O-])c1cc(-c2nnn(Cc3ccc(Br)cc3)n2)cc([N+](=O)[O-])c1", "Nakaseomyces glabratus", "> 500 µM"),
    ("O=[N+]([O-])c1cc(-c2nnn(Cc3cccc(Cl)c3)n2)cc([N+](=O)[O-])c1", "Nakaseomyces glabratus", "> 500 µM"),
    ("COc1cccc(Cn2nnc(-c3cc([N+](=O)[O-])cc([N+](=O)[O-])c3)n2)c1", "Nakaseomyces glabratus", "> 500 µM"),
    ("Cn1nnnc1SCn1nnc(-c2cc([N+](=O)[O-])cc([N+](=O)[O-])c2)n1", "Nakaseomyces glabratus", "> 500 µM"),
    ("O=[N+]([O-])c1cc(-c2nnn(CSc3nnnn3-c3ccc(Cl)cc3)n2)cc([N+](=O)[O-])c1", "Nakaseomyces glabratus", "> 125 µM"),
    ("COc1cccc(-n2nnnc2SCn2nnc(-c3cc([N+](=O)[O-])cc([N+](=O)[O-])c3)n2)c1", "Nakaseomyces glabratus", "> 500 µM"),
    ("O=[N+]([O-])c1cc(-c2nnn(Cc3ccc(F)cc3)n2)cc([N+](=O)[O-])c1", "Nakaseomyces glabratus", "> 500 µM"),
    ("O=[N+]([O-])c1cc(-c2nnn(CSc3nnnn3-c3ccccc3)n2)cc([N+](=O)[O-])c1", "Nakaseomyces glabratus", "> 125 µM"),
    ("CCCCCCCCCCCCn1nnc(-c2cc([N+](=O)[O-])cc([N+](=O)[O-])c2)n1", "Nakaseomyces glabratus", "> 250 µM"),
]

---

Test system: Aspergillus fumigatus
Test: Antifungal activity against Aspergillus fumigatus 231 after 24 hrs by broth microdilution method
Type: functional
Conditions: Aspergillus fumigatus, 231, 24 h
Readout type: MIC

# Smiles structure, Tgt, Result
rows = [
    ("O=[N+]([O-])c1cc(-c2nnn(Cc3ccccc3F)n2)cc([N+](=O)[O-])c1", "Aspergillus fumigatus", "> 500 µM"),
    ("CCCCCCCCCCCCn1nnc(-c2cc([N+](=O)[O-])cc([N+](=O)[O-])c2)n1", "Aspergillus fumigatus", "> 250 µM"),
    ("O=[N+]([O-])c1cc(-c2nnn(CSc3nnnn3-c3ccc(Cl)c(Cl)c3)n2)cc([N+](=O)[O-])c1", "Aspergillus fumigatus", "> 125 µM"),
    ("Cc1ccc(Cn2nnc(-c3cc([N+](=O)[O-])cc([N+](=O)[O-])c3)n2)cc1", "Aspergillus fumigatus", "> 500 µM"),
    ("O=[N+]([O-])c1cc(-c2nnn(Cc3ccc(Br)cc3)n2)cc([N+](=O)[O-])c1", "Aspergillus fumigatus", "> 500 µM"),
    ("O=[N+]([O-])c1cc(-c2nnn(CSc3nnnn3-c3ccc(Cl)cc3)n2)cc([N+](=O)[O-])c1", "Aspergillus fumigatus", "> 125 µM"),
    ("COc1cccc(-n2nnnc2SCn2nnc(-c3cc([N+](=O)[O-])cc([N+](=O)[O-])c3)n2)c1", "Aspergillus fumigatus", "> 500 µM"),
    ("Cc1ccc(Cn2nnnc2-c2cc([N+](=O)[O-])cc([N+](=O)[O-])c2)cc1", "Aspergillus fumigatus", "> 500 µM"),
    ("O=[N+]([O-])c1cc(-c2nnn(Cc3ccc(Cl)cc3)n2)cc([N+](=O)[O-])c1", "Aspergillus fumigatus", "> 500 µM"),
]

---

System: Enterococcus sp.
Assay: Antibacterial activity against Enterococcus sp. HK14365/08 after 24 hrs by broth microdilution method
Format: functional
Details: HK14365/08, 24 h

# Smiles structure, MIC
records = [
    ("COc1cccc(Cn2nnc(-c3cc([N+](=O)[O-])cc([N+](=O)[O-])c3)n2)c1", "> 500 µM"),
    ("O=[N+]([O-])c1cc(-c2nnn(Cc3ccccc3F)n2)cc([N+](=O)[O-])c1", "> 500 µM"),
    ("O=[N+]([O-])c1cc(-c2nnn(Cc3cccc(Br)c3)n2)cc([N+](=O)[O-])c1", "> 500 µM"),
    ("Cc1ccc(Cn2nnc(-c3cc([N+](=O)[O-])cc([N+](=O)[O-])c3)n2)cc1", "> 500 µM"),
    ("O=[N+]([O-])c1cc(-c2nnn(CSc3nnnn3-c3ccc(Cl)cc3)n2)cc([N+](=O)[O-])c1", "125 µM"),
    ("Cn1nnnc1SCn1nnc(-c2cc([N+](=O)[O-])cc([N+](=O)[O-])c2)n1", "500 µM"),
    ("O=[N+]([O-])c1cc(-c2nnn(Cc3cccc(Cl)c3)n2)cc([N+](=O)[O-])c1", "> 500 µM"),
    ("Cc1ccc(Cn2nnnc2-c2cc([N+](=O)[O-])cc([N+](=O)[O-])c2)cc1", "250 µM"),
    ("O=[N+]([O-])c1cc(-c2nnn(Cc3ccc(F)cc3)n2)cc([N+](=O)[O-])c1", "> 500 µM"),
]

---

Test system: Trichophyton mentagrophytes
Assay: Antifungal activity against Trichophyton mentagrophytes 445 after 72 hrs by broth microdilution method
Assay type: functional
Conditions: Trichophyton mentagrophytes, 445, 72 h
Readout type: MIC

# Smiles structure, Tgt, Result
measured = [
    ("O=[N+]([O-])c1cc(-c2nnn(Cc3cccc(Br)c3)n2)cc([N+](=O)[O-])c1", "Trichophyton mentagrophytes", "> 500 µM"),
    ("COc1ccc(Cn2nnnc2-c2cc([N+](=O)[O-])cc([N+](=O)[O-])c2)cc1", "Trichophyton mentagrophytes", "500 µM"),
    ("Cn1nnnc1SCn1nnc(-c2cc([N+](=O)[O-])cc([N+](=O)[O-])c2)n1", "Trichophyton mentagrophytes", "> 500 µM"),
    ("Cc1ccc(Cn2nnnc2-c2cc([N+](=O)[O-])cc([N+](=O)[O-])c2)cc1", "Trichophyton mentagrophytes", "> 500 µM"),
    ("COc1ccc(Cn2nnc(-c3cc([N+](=O)[O-])cc([N+](=O)[O-])c3)n2)cc1", "Trichophyton mentagrophytes", "> 500 µM"),
    ("OC(Cn1cncn1)(Cn1cncn1)c1ccc(F)cc1F", "Trichophyton mentagrophytes", "105 µM"),
    ("O=[N+]([O-])c1cc(-c2nnn(Cc3ccccc3F)n2)cc([N+](=O)[O-])c1", "Trichophyton mentagrophytes", "> 500 µM"),
    ("O=[N+]([O-])c1cc(-c2nnn(Cc3ccc(Br)cc3)n2)cc([N+](=O)[O-])c1", "Trichophyton mentagrophytes", "> 500 µM"),
    ("O=[N+]([O-])c1cc(-c2nnnn2Cc2ccccc2)cc([N+](=O)[O-])c1", "Trichophyton mentagrophytes", "500 µM"),
]

---

Test system: Mycobacterium kansasii
Test: Antimycobacterial activity against Mycobacterium kansasii CNCTC My 235/80 after 14 days by micromethod
Assay type: functional
Settings: CNCTC My 235/80, 336 h
Below, each entry is listed with its recorded MIC99.

# Compound, Endpoint unit, MIC99
rows = [
    ("O=[N+]([O-])c1cc(-c2nnn(Cc3ccccc3)n2)cc([N+](=O)[O-])c1", "µM", 2),
    ("CO[C@H]1/C=C/O[C@@]2(C)Oc3c(C)c(O)c4c(O)c(c(/C=N/N5CCN(C)CC5)c(O)c4c3C2=O)NC(=O)/C(C)=C\\C=C\\[C@H](C)[C@H](O)[C@@H](C)[C@@H](O)[C@@H](C)[C@H](OC(C)=O)[C@@H]1C [RIFAMPIN]", "µM", 0.25),
    ("O=[N+]([O-])c1cc(-c2nnn(CCSc3nnnn3-c3ccc(Br)cc3)n2)cc([N+](=O)[O-])c1", "µM", 1),
]
